Test system: III-B strain of HIV-1
test details: microbe, parasite or virus in culture
Assay type: cell-based
experimental context: HIV1 in C8166 cells; Table 3; read-out: Activity EC50
y if EC50 is below 2 nM. n if not; exact matches included in n.

{"columns": ["compound", "target system", "group"],
 "data": [
  ["Cc1cn(C2C=CC(COP(=O)(N[C@@H](C)C(=O)OC3CCCCC3)Oc3ccccc3)O2)c(=O)[nH]c1=O (some centres unmarked) [Compound 892]", "III-B strain of HIV-1", "y"],
  ["CCCCCCOC(=O)[C@H](C)NP(=O)(OCC1C=CC(n2cc(C)c(=O)[nH]c2=O)O1)Oc1ccccc1 (some centres unmarked) [Compound 862]", "III-B strain of HIV-1", "y"],
  ["Cc1cn(C2C=CC(COP(=O)(NC(Cc3ccccc3)C(=O)OCc3ccccc3)Oc3ccccc3)O2)c(=O)[nH]c1=O (centres unmarked) [Compound 877]", "III-B strain of HIV-1", "y"],
  ["COC(=O)C(CCSC)NP(=O)(OCC1C=CC(n2cc(C)c(=O)[nH]c2=O)O1)Oc1ccccc1 (centres unmarked) [Compound 867]", "III-B strain of HIV-1", "y"],
  ["COC(=O)C(C)NP(=O)(OC[C@@H]1C=C[C@H](n2cc(C)c(=O)[nH]c2=O)O1)Oc1cc(Cl)cc(Cl)c1 (some centres unmarked) [Compound 546]", "III-B strain of HIV-1", "y"],
  ["Cc1cn(C2C=CC(COP(=O)(NC(C)C(=O)OCc3ccccc3)Oc3ccc(Br)cc3Br)O2)c(=O)[nH]c1=O (centres unmarked) [Compound 868]", "III-B strain of HIV-1", "n"],
  ["COC(=O)C(C)NP(=O)(OCC1C=CC(n2cc(C)c(=O)[nH]c2=O)O1)Oc1ccc(F)cc1 (centres unmarked) [Compound 327]", "III-B strain of HIV-1", "n"],
  ["Cc1cn(C2C=CC(COP(=O)(NC(C)C(=O)OCc3ccccc3)Oc3ccccc3)O2)c(=O)[nH]c1=O (centres unmarked) [Compound 730]", "III-B strain of HIV-1", "y"],
  ["Cc1cn(C2C=CC(COP(=O)(NC(Cc3ccccc3)C(=O)OCc3ccccc3)Oc3ccccc3)O2)c(=O)[nH]c1=O (centres unmarked) [Compound 866]", "III-B strain of HIV-1", "n"],
  ["COC(=O)C(CC(C)C)NP(=O)(OCC1C=CC(n2cc(C)c(=O)[nH]c2=O)O1)Oc1ccccc1 (centres unmarked) [Compound 864]", "III-B strain of HIV-1", "n"]
]}

--- query ---
Exercise: is_below(EC50, 2 nM) for Cc1cn([C@H]2C=C[C@@H](COP(=O)(NC(Cc3ccccc3)C(=O)OC(C)(C)C)Oc3ccccc3)O2)c(=O)[nH]c1=O (some centres unmarked) [Compound 878] ?
Solution: n

----------
Could you please report measured CC50 for the items listed next?
Test system: MT-4 cells
test details: Toxicity to MT-4 cells
Type: cell-based, human
experimental context: MT-4 cells; read-out: CC50 MT4: CC50 for toxicity to MT-4 cells
Give bare numbers, in µM.

{"columns": ["compound", "CC50 [µM]"],
 "data": [
  ["COC(=O)C(C)NP(=O)(OCC1OC(n2cc(C)c(=O)[nH]c2=O)CC1N=[N+]=[N-])Oc1cccc(C(F)(F)F)c1 (stereo not shown)", 104],
  ["COC(=O)[C@H](C)NP(=O)(OCC1OC(n2cc(C)c(=O)[nH]c2=O)CC1N=[N+]=[N-])Oc1cc(Cl)cc(Cl)c1 (stereo partly shown)", 98]
]}

Continue with the compound presented below.
Exercise: // Input: COC(=O)[C@H](C)NP(=O)(OCC1OC(n2cc(C)c(=O)[nH]c2=O)CC1N=[N+]=[N-])Oc1ccccc1 (stereo partly shown) . Output its CC50 only.
Solution: 121
